From: patent US20140107109A1

assay.target: Beta Secretase enzyme (BACE1) (Homo sapiens, UniProt P56817)
Sequence (P56817 46-501): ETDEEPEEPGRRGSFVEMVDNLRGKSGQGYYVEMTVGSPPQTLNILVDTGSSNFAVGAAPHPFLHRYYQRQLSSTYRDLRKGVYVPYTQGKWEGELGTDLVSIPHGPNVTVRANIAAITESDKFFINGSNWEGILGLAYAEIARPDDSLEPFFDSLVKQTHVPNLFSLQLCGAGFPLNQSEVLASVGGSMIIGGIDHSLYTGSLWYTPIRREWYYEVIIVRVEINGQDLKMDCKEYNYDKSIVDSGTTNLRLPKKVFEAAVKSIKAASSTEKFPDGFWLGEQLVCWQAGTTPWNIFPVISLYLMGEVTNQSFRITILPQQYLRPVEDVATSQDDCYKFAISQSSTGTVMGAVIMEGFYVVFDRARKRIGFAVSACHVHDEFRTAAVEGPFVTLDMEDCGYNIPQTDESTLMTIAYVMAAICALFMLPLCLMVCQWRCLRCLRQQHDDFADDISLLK
assay.info: In vitro enzymatic BACE FRET assay
Format: biochemical
reported.conditions: read-out: BACE1 FRET assay IC50
pIC50: −log10 of the molar value.
Each entry belongs to exactly one class, chosen by where its pIC50 falls: class A (below 8), class B (8 to below 9), class C (9 or more)

1. CC1(C)C(N)=N[C@](CF)(c2cc(NC(=O)c3ccc(C(F)(F)F)cn3)ccc2F)CS1(=O)=O :: class B
2. CC1(C)C(N)=N[C@](CF)(c2cc(NC(=O)c3cnc(C(F)F)cn3)ccc2F)CS1(=O)=O :: class B
3. COc1ccc(C)cc1Oc1ccc(F)c([C@]2(C)CS(=O)(=O)C(C)(C)C(N)=N2)c1 :: class A
4. COc1cnc2c(Nc3ccc(F)c([C@]4(C)CS(=O)(=O)C(C)(C)C(N)=N4)c3)nccc2n1 :: class B
5. CC1(C)C(N)=N[C@](C)(c2cc(Nc3csc4cc(C#N)cnc34)ccc2F)CS1(=O)=O :: class B
6. CC1(C)C(N)=N[C@](C)(c2cc(Sc3cccc4ccccc34)ccc2F)CS1(=O)=O :: class A
7. CC1(C)C(N)=N[C@](C)(c2cc(Nc3nccc4cc(Cl)cnc34)cc(F)c2F)CS1(=O)=O [Example 69] :: class C
8. Cc1nc(C(=O)Nc2ccc(F)c([C@]3(C)CS(=O)(=O)C(C)(C)C(N)=N3)c2)cs1 :: class A
9. COc1cnc(C(=O)Nc2ccc(F)c([C@@]3(C)N=C(N)C4(CCC4)S(=O)(=O)[C@@H]3F)c2)c(C)c1 :: class B
10. COc1cnc2c(Nc3ccc(F)c([C@]4(C)CS(=O)(=O)[C@@](C)(F)C(N)=N4)c3)nccc2n1 :: class B
11. Cc1cc(Cl)cnc1C(=O)Nc1ccc(F)c([C@]2(C)CS(=O)(=O)C(C)(C)C(N)=N2)c1 :: class C
12. CC1(C)C(N)=N[C@](C)(c2cc(Nc3nccc4cc(Cl)cnc34)cc(F)c2F)CS1(=O)=O (single isomer, unassigned) [Example 70] :: class A
13. Cc1nc(F)c([C@]2(C)CS(=O)(=O)C(C)(C)C(N)=N2)cc1NC(=O)c1ccc(Cl)cn1 :: class A
14. CC1(C)C(N)=N[C@](C)(c2cc(NC(=O)c3ccc(C(F)F)cn3)ccc2F)CS1(=O)=O :: class B
15. CC#CCOc1cnc(C(=O)Nc2ccc(F)c([C@]3(C)CS(=O)(=O)C(C)(C)C(N)=N3)c2)cn1 :: class C
16. COc1cnc(C(=O)Nc2ccc(F)c([C@]3(C)CS(=O)(=O)[C@@](C)(F)C(N)=N3)c2)cn1 :: class B
